molecular target: acetylcholine muscarinic M1 receptor (Homo sapiens); construct: expressed in transfected cells; host or cells: CHOnfat cells (CHO cells with an NFAT reporter) expressing hM1, kept under Geneticin selection; assay: muscarinic FLIPR assay: intracellular calcium in CHOnfat/hM1 cells, potentiation of EC20 acetylcholine; type: cell-based; conditions: M1 Pot., Table 2; CHOnfat/hM1 cells, FLIPR, EC20 acetylcholine (3 nM final)
# EC50 per entry
PARAMETER: EC50 (µM)

{"MOLECULE": "CC1CCN(Cc2cc3c(c4ncccc24)CN([C@H]2CCCC[C@@H]2O)C3=O)CC1 [Example 87]", "PARAMETER": "EC50", "MEASUREMENT": 0.2}
{"MOLECULE": "CN(C)C(=O)Oc1cccc(N2Cc3c(cc(CN4CCC(F)(C#N)CC4)c4cccnc34)C2=O)c1 [Example 129]", "PARAMETER": "EC50", "MEASUREMENT": 2.17}
{"MOLECULE": "C#CC1(F)CCN(Cc2cc3c(c4ncccc24)CN(c2cccc(OC(=O)N(C)C)c2)C3=O)CC1 [Example 130]", "PARAMETER": "EC50", "MEASUREMENT": 1.43}

###

# pEC50 per entry
Biological target: acetylcholine muscarinic M1 receptor (Homo sapiens, UniProt P11229)
Construct: expressed in transfected cells; host or cells: CHOnfat cells (CHO cells with an NFAT reporter) expressing hM1, kept under Geneticin selection
Sequence (P11229 1-460): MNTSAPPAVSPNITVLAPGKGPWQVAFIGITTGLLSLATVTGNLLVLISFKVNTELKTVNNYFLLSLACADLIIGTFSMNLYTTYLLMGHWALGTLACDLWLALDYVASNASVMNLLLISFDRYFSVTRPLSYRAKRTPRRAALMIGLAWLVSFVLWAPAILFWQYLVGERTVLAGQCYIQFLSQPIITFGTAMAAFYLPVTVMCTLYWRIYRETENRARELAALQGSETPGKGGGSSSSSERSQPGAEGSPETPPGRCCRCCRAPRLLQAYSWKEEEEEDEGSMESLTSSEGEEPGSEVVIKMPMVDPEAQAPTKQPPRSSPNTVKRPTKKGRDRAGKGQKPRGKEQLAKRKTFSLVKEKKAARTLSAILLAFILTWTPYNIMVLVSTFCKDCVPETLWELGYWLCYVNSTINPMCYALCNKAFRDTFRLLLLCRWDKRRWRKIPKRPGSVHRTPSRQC
Assay: muscarinic FLIPR assay: intracellular calcium in CHOnfat/hM1 cells, potentiation of EC20 acetylcholine
Format: cell-based
Conditions: Table 1; CHOnfat/hM1 cells, FLIPR, EC20 acetylcholine (3 nM final); read-out: M1 Pot.
pEC50: −log10 of the molar value.

{"MOLECULE": "Cc1ccnc(C2(C#N)CCN(Cc3cc4c(c5ccccc35)CN(c3ccccc3F)C4=O)CC2)c1 [Example 63]", "pEC50": 6.26}
{"MOLECULE": "N#CC1(c2cccnc2)CCN(Cc2cc3c(c4ccccc24)CN([C@H]2CCCC[C@@H]2O)C3=O)CC1 [Example 57]", "pEC50": 7.66}
{"MOLECULE": "O=C1c2cc(CN3CCCC3)c3ccccc3c2CN1C1CCCCC1O (stereo not shown) [Example 23]", "pEC50": 5.42}
{"MOLECULE": "O=C1c2cc(CN3CCN(c4cccnc4)CC3)c3ccccc3c2CN1[C@H]1CCCC[C@@H]1O [Example 76]", "pEC50": 7.43}
{"MOLECULE": "COc1ccc(N2CCN(Cc3cc4c(c5ccccc35)CN([C@H]3CCCC[C@@H]3O)C4=O)C(C)C2)cc1 (stereo partly shown) [Example 70]", "pEC50": 6.82}
{"MOLECULE": "O=C1c2cc(CN3CCN(c4ccc(F)cc4)CC3)c3ccccc3c2CN1[C@H]1CCCC[C@@H]1O [Example 67]", "pEC50": 7.17}
{"MOLECULE": "CS(=O)(=O)N1CCN(Cc2cc3c(c4ccccc24)CN(C2CCCCC2O)C3=O)CC1 (stereo not shown) [Example 15]", "pEC50": 6.14}
{"MOLECULE": "CC1CN(Cc2cc3c(c4ccccc24)CN([C@H]2CCCC[C@@H]2O)C3=O)CCN1c1ccccc1 (stereo partly shown) [Example 78]", "pEC50": 6.43}
{"MOLECULE": "CN1CCN(Cc2cc3c(c4ccccc24)CN([C@H]2CCCC[C@@H]2O)C3=O)CC1=O [Example 13]", "pEC50": 6.25}
{"MOLECULE": "O=C1c2cc(CN3CCC(F)(F)C3)c3ccccc3c2CN1C1CCCCC1O (stereo not shown) [Example 33]", "pEC50": 6.62}
{"MOLECULE": "Cc1ccnc(C2(C#N)CCN(Cc3cc4c(c5ccccc35)CN([C@H]3CCCC[C@@H]3O)C4=O)CC2)c1 [Example 64]", "pEC50": 8.01}
{"MOLECULE": "N#CC1(c2ccncn2)CCN(Cc2cc3c(c4ccccc24)CN([C@H]2CCCC[C@@H]2O)C3=O)CC1 [Example 51]", "pEC50": 7.77}
{"MOLECULE": "O=C1c2cc(CN3CCN(CC(F)(F)F)CC3)c3ccccc3c2CN1C1CCCCC1O (stereo not shown) [Example 34]", "pEC50": 5.72}
{"MOLECULE": "CC1c2c(cc(CN3CCC(C#N)(c4ccccn4)CC3)c3ccccc23)C(=O)N1[C@H]1CCCC[C@@H]1O (single isomer, unassigned) [Example 45]", "pEC50": 6.57}
{"MOLECULE": "O=C1c2cc(CN3CCC(c4ccncc4)CC3)c3ccccc3c2CN1C1CCCCC1O (stereo not shown) [Example 42]", "pEC50": 6.62}
{"MOLECULE": "N#CC1(c2ccccc2)CCN(Cc2cc3c(c4ccccc24)CN([C@H]2CCCC[C@@H]2O)C3=O)CC1 [Example 56]", "pEC50": 7.08}

###

biological target: acetylcholine muscarinic M1 receptor (Homo sapiens); construct: expressed in transfected cells; host or cells: CHOnfat cells (CHO cells with an NFAT reporter) expressing hM1, kept under Geneticin selection; assay: muscarinic FLIPR assay: intracellular calcium in CHOnfat/hM1 cells, potentiation of EC20 acetylcholine; type: cell-based; conditions: Table 2; CHOnfat/hM1 cells, FLIPR, EC20 acetylcholine (3 nM final); read-out: M1 Pot.
PARAMETER: log10 EC50 (log10 of the value in nM)

{"COMPOUND": "CC1c2c(cc(CN3CCC(F)(F)CC3)c3cccnc23)C(=O)N1[C@@H]1CCCC[C@@H]1O (some centres unmarked) [Example 104]", "log10 EC50": 1.18}
{"COMPOUND": "N#CC1CCN(Cc2cc3c(c4ncccc24)CN([C@H]2CCCC[C@@H]2O)C3=O)CC1 [Example 92]", "log10 EC50": 1.86}
{"COMPOUND": "COc1ccc(N2CCN(Cc3cc4c(c5ncccc35)C(C)N(C3CCCCC3O)C4=O)CC2)cc1 (centres unmarked) [Example 169]", "log10 EC50": 2.77}
{"COMPOUND": "O=C1c2cc(CN3CCC(c4ccncc4)CC3)c3cccnc3c2CN1C1CCCCC1O (centres unmarked) [Example 142]", "log10 EC50": 1.71}
{"COMPOUND": "CC1c2c(cc(CN3CCN(c4ccc(F)cc4)CC3)c3cccnc23)C(=O)N1C1CCCCC1O (centres unmarked) [Example 173]", "log10 EC50": 2.00}
{"COMPOUND": "O=C1c2cc(CN3CCC(F)(Cc4ccccc4)CC3)c3cccnc3c2CN1C1CCCCC1O (centres unmarked) [Example 134]", "log10 EC50": 2.32}
{"COMPOUND": "COc1ccc(N2CCN(Cc3cc4c(c5ncccc35)CN(C3CCCCC3O)C4=O)CC2)cc1 (centres unmarked) [Example 168]", "log10 EC50": 1.38}
{"COMPOUND": "N#CC1(Cc2ccncc2)CCN(Cc2cc3c(c4ncccc24)CN(C2CCCCC2O)C3=O)CC1 (centres unmarked) [Example 135]", "log10 EC50": 2.19}

###

Target: acetylcholine muscarinic M1 receptor (Homo sapiens, UniProt P11229)
Construct: expressed in transfected cells; host or cells: CHOnfat cells (CHO cells with an NFAT reporter) expressing hM1, kept under Geneticin selection
Sequence (P11229 1-460): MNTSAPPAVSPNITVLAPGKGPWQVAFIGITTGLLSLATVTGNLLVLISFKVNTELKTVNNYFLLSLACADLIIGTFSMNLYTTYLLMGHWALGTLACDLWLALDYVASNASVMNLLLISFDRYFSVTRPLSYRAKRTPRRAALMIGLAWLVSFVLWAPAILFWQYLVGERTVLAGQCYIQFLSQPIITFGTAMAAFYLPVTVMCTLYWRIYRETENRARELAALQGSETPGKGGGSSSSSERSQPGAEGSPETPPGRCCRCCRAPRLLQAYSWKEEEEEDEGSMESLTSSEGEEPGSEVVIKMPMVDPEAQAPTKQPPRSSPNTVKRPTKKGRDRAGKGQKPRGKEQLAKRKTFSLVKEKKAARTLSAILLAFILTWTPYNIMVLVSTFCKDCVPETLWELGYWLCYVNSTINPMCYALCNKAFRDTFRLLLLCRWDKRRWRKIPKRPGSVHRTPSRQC
Experiment: muscarinic FLIPR assay: intracellular calcium in CHOnfat/hM1 cells, potentiation of EC20 acetylcholine
Format: cell-based
Conditions: Table 1; CHOnfat/hM1 cells, FLIPR, EC20 acetylcholine (3 nM final); read-out: M1 Pot.
pEC50: −log10 of the molar value.
PARAMETER: pEC50

{"MOLECULE": "N#CC1(c2ccccn2)CCN(Cc2cc3c(c4ccccc24)CN(C2CCCOC2)C3=O)CC1 (stereo not shown) [Example 55]", "PARAMETER": "pEC50", "MEASUREMENT": 5.82}
{"MOLECULE": "CC1c2c(cc(CN3CCC(C#N)(c4ccccn4)CC3)c3ccccc23)C(=O)N1[C@H]1CCCC[C@@H]1O (single isomer, unassigned) [Example 44]", "PARAMETER": "pEC50", "MEASUREMENT": 8.02}
{"MOLECULE": "COc1ccc(N2CC3CC2CN3Cc2cc3c(c4ccccc24)CN([C@H]2CCCC[C@@H]2O)C3=O)cc1 (stereo partly shown) [Example 71]", "PARAMETER": "pEC50", "MEASUREMENT": 6.50}
{"MOLECULE": "Cn1cc(N2CCN(Cc3cc4c(c5ccccc35)CN(C3CCOCC3)C4=O)CC2)cn1 [Example 82]", "PARAMETER": "pEC50", "MEASUREMENT": 5.80}
